Below, each entry is listed with its recorded Liver microsome T1-2 (min) Rat.
# Protocol Description: in vitro liver microsome metabolic stability, rat
# Assay type: in vitro ADME
# Experimental Setup: Rat liver microsomes, 37°C
Lab book: enter the figure in min, no units written.

Examples with answers:
>  <Molecule>
Cc1nccnc1[C@H](Nc1c(Nc2ccc(F)c(C(=O)N(C)C(C)C)c2O)c(=O)c1=O)C1(C)CCCC1

>  <Reading Unit>
min

>  <Liver microsome T1-2 (min) Rat>
50.16

$$$$
>  <Molecule>
Cc1cccnc1[C@@H](Nc1c(Nc2ccnc(C(=O)N(C)C)c2O)c(=O)c1=O)[C@]1(C)CCC(F)(F)C1 (single isomer, unassigned) [125D]

>  <Reading Unit>
min

>  <Liver microsome T1-2 (min) Rat>
83.07

$$$$
>  <Molecule>
CN(CC(F)F)C(=O)c1nccc(Nc2c(N[C@@H](c3ccc(F)cn3)C3(C)CCCC3)c(=O)c2=O)c1O

>  <Reading Unit>
min

>  <Liver microsome T1-2 (min) Rat>
52.81

$$$$
>  <Molecule>
Cc1cccnc1C(Nc1c(Nc2ccc(F)c(C(=O)N(C)C)c2O)c(=O)c1=O)[C@@]1(C)CC(F)(F)CO1 (stereo partly shown) [087B]

>  <Reading Unit>
min

>  <Liver microsome T1-2 (min) Rat>
571.31

$$$$
>  <Molecule>
Cc1cccnc1[C@H](Nc1c(Nc2ccc(Cl)c(C(=O)N(C)C)c2O)c(=O)c1=O)C1(C)CCCC1

>  <Reading Unit>
min

>  <Liver microsome T1-2 (min) Rat>
20.71

$$$$

Q: Determine its reported Liver microsome T1-2 (min) Rat: Cc1nccnc1[C@H](Nc1c(Nc2ccc(Cl)c(C(=O)N(C)C)c2O)c(=O)c1=O)C1(C)CCCC1
Ans: 53.62

Q: Determine its reported Liver microsome T1-2 (min) Rat: Cc1nccnc1[C@H](Nc1c(Nc2ccnc(C(=O)N(C)C)c2O)c(=O)c1=O)C1(C)CCCC1
Ans: 72.62

* * *

# Protocol Description: in vivo pharmacokinetic study in SD rats
# Experimental Setup: male, rat, plasma, 1 mg/kg, PO
Lab note: anything with half-life at or over 2 h counts as 1.0; the rest go in 0.0.

>  <Molecule>
CN(C)C(=O)c1nccc(Nc2c(N[C@@H](c3nc(CF)ccc3F)C3(C)CCCC3)c(=O)c2=O)c1O

>  <Category Label>
1.0

$$$$
>  <Molecule>
Cc1cccnc1[C@H](Nc1c(Nc2ccnc(C(=O)N(C)C)c2O)c(=O)c1=O)C1(C)CCCC1

>  <Category Label>
1.0

$$$$
>  <Molecule>
Cc1cccnc1[C@H](Nc1c(Nc2ccc(F)c(C(=O)N(C)C)c2O)c(=O)c1=O)C1(C)CC(F)(F)C1

>  <Category Label>
1.0

$$$$
>  <Molecule>
CN(C)C(=O)c1nccc(Nc2c(N[C@@H](c3nc(Cl)ccc3F)C3(C)CCCC3)c(=O)c2=O)c1O

>  <Category Label>
1.0

$$$$

Q: Exam item: decide whether the reported half-life for Cc1cc(F)cnc1[C@H](Nc1c(Nc2ccnc(C(=O)N(C)C)c2O)c(=O)c1=O)[C@]1(C)CC(F)(F)CO1 [093A] is at least 2 h.
Ans: 0.0

* * *

# Protocol Description: in vivo pharmacokinetic study in SD rats
# Experimental Setup: male, rat, plasma, 1 mg/kg, IV
Strictly below 20 min in half-life: 1.0. Otherwise: 0.0.

>  <Compound>
Cc1nccnc1[C@H](Nc1c(Nc2ccc(F)c(C(=O)N(C)C)c2O)c(=O)c1=O)C1(C)CCCC1

>  <Category Label>
1.0

$$$$
>  <Compound>
Cc1cc(F)cnc1[C@H](Nc1c(Nc2ccnc(C(=O)N(C)C)c2O)c(=O)c1=O)[C@]1(C)CC(F)(F)CO1 [093A]

>  <Category Label>
1.0

$$$$
>  <Compound>
CN(C)C(=O)c1nccc(Nc2c(N[C@@H](C#CC3CCC3)[C@]3(C)CC(F)(F)CO3)c(=O)c2=O)c1O (single isomer, unassigned) [110A]

>  <Category Label>
1.0

$$$$
>  <Compound>
CN(C)C(=O)c1nccc(Nc2c(N[C@@H](c3nc(Cl)ccc3F)[C@@]3(C)CC(F)(F)CO3)c(=O)c2=O)c1O [068B]

>  <Category Label>
1.0

$$$$
>  <Compound>
CN(C)C(=O)c1nccc(Nc2c(N[C@@H](c3nc(CF)ccc3F)C3(C)CCCC3)c(=O)c2=O)c1O

>  <Category Label>
0.0

$$$$

Next:
Q: Record CN(C)C(=O)c1nccc(Nc2c(N[C@@H](c3nc(C(F)F)ccc3F)C3(C)CCCC3)c(=O)c2=O)c1O : is its half-life strictly below 20 min?
Ans: 0.0

* * *

# Protocol Description: in vivo pharmacokinetic study in SD rats
# Experimental Setup: male, rat, plasma, 1 mg/kg, IV
# Protocol: 2.2.1 Rats: SD rats, SPF grade, 6 rats per compound, male, body weight range 180-200 g. 2.2.2 Housing conditions: The animals were housed in an SPF-grade animal facility with free access to food and water, three per cage, under a 12/12-hour light/dark cycle (7:00 am/7:00 pm), at a temperature of 23 ± 3°C. […] The data were analyzed using WinNonlin via a non-compartmental model to obtain PK parameters (Cmax, AUC0-last, AUCinf, T1/2, etc., selected based on different routes of administration). […]
Strictly below 1000 ng·h/mL in AUC(0-t): Y. Otherwise: N.

Solved cases below.
>  <Compound>
Cc1cccnc1[C@H](Nc1c(Nc2ccc(F)c(C(=O)N(C)C)c2O)c(=O)c1=O)C1(C)CC(F)(F)C1 [compound 089]

>  <Category Label>
Y

$$$$
>  <Compound>
CN(C)C(=O)c1nccc(Nc2c(N[C@@H](c3nc(F)ccc3F)C3(C)CCCC3)c(=O)c2=O)c1O [compound 023]

>  <Category Label>
N

$$$$
>  <Compound>
Cc1cccnc1[C@H](Nc1c(Nc2ccnc(C(=O)N(C)C)c2O)c(=O)c1=O)[C@]1(C)CC(F)(F)CO1 (single isomer, unassigned) [128B]

>  <Category Label>
Y

$$$$
>  <Compound>
CN(C)C(=O)c1nccc(Nc2c(N[C@@H](c3nc(Cl)ccc3F)C3(C)CCCC3)c(=O)c2=O)c1O [compound 053]

>  <Category Label>
N

$$$$

Next:
Q: Record CN(C)C(=O)c1nccc(Nc2c(N[C@@H](c3nc(CF)ccc3F)C3(C)CCCC3)c(=O)c2=O)c1O [compound 094] : is its AUC(0-t) strictly below 1000 ng·h/mL?
Ans: N

* * *

# Protocol Description: in vitro liver microsome metabolic stability, beagle dog
# Type: in vitro ADME
# Experimental Setup: Beagle dog liver microsomes, 37°C
Lab note: anything with Liver microsome T1-2 (min) Beagle dog at or over 300 min counts as condition met; the rest go in condition not met.

>  <Compound>
CC#C[C@H](Nc1c(Nc2ccc(Cl)c(C(=O)N(C)C)c2O)c(=O)c1=O)C1(C)CCCC1

>  <Category Label>
condition met

$$$$

Q: Exam item: decide whether the reported Liver microsome T1-2 (min) Beagle dog for Cc1cccnc1[C@H](Nc1c(Nc2ccnc(C(=O)N(C)C)c2O)c(=O)c1=O)C1(C)CCCO1 (stereo partly shown) is at least 300 min.
Ans: condition not met

Q: Exam item: decide whether the reported Liver microsome T1-2 (min) Beagle dog for CN(C)C(=O)c1nccc(Nc2c(N[C@@H](c3nc(C(F)F)ccc3F)C3(C)CC(F)(F)CO3)c(=O)c2=O)c1O (stereo partly shown) is at least 300 min.
Ans: condition not met

Q: Exam item: decide whether the reported Liver microsome T1-2 (min) Beagle dog for CN(C)C(=O)c1nccc(Nc2c(N[C@@H](c3cc(F)cc(F)n3)C3(C)CCCC3)c(=O)c2=O)c1O is at least 300 min.
Ans: condition not met

Q: Exam item: decide whether the reported Liver microsome T1-2 (min) Beagle dog for Cc1cccnc1[C@H](Nc1c(Nc2ccnc(C(=O)N(C)C)c2O)c(=O)c1=O)[C@]1(C)CC(F)(F)CO1 (single isomer, unassigned) [128B] is at least 300 min.
Ans: condition not met

Q: Exam item: decide whether the reported Liver microsome T1-2 (min) Beagle dog for Cc1nccnc1[C@H](Nc1c(Nc2ccc(Cl)c(C(=O)N(C)C)c2O)c(=O)c1=O)C1(C)CCCC1 is at least 300 min.
Ans: condition met

Q: Exam item: decide whether the reported Liver microsome T1-2 (min) Beagle dog for Cc1cccnc1[C@H](Nc1c(Nc2ccc(Cl)c(C(=O)N(C)C)c2O)c(=O)c1=O)C1(C)CCCC1 is at least 300 min.
Ans: condition not met

* * *

Below, each entry is listed with its recorded Liver microsome T1-2 (min) Human.
# Protocol Description: in vitro liver microsome metabolic stability, human
# Format: in vitro ADME
# Experimental Setup: Human liver microsomes, 37°C
Lab book: enter the figure in min, no units written.

Examples with answers:
>  <Compound>
CN(C)C(=O)c1nccc(Nc2c(NC(c3nc(C(F)(F)F)ccc3F)C3(C)CC(F)(F)CO3)c(=O)c2=O)c1O (stereo not drawn) [compound 098]

>  <Recorded Number>
208.30

$$$$
>  <Compound>
CN(CC(F)F)C(=O)c1nccc(Nc2c(N[C@@H](c3ccc(F)cn3)C3(C)CCCC3)c(=O)c2=O)c1O [compound 071]

>  <Recorded Number>
262.47

$$$$
>  <Compound>
CN(C)C(=O)c1nccc(Nc2c(N[C@@H](c3ncc(F)cc3F)C3(C)CCCC3)c(=O)c2=O)c1O [compound 009]

>  <Recorded Number>
225.37

$$$$
>  <Compound>
CN(C)C(=O)c1nccc(Nc2c(NC(c3ncccn3)C3(C)CCCC3)c(=O)c2=O)c1O (racemic) [compound 017]

>  <Recorded Number>
1176.24

$$$$
>  <Compound>
Cc1cc(F)cnc1[C@H](Nc1c(Nc2ccnc(C(=O)N(C)C)c2O)c(=O)c1=O)C1(C)CCCC1 [compound 065]

>  <Recorded Number>
197.68

$$$$

Q: Determine its reported Liver microsome T1-2 (min) Human: Cc1cccnc1[C@H](Nc1c(Nc2ccnc(C(=O)N(C)C)c2O)c(=O)c1=O)C1(C)CCCO1 (stereo partly drawn) [compound 082]
Ans: 261.96

Q: Determine its reported Liver microsome T1-2 (min) Human: Cc1cccnc1C(Nc1c(Nc2ccc(F)c(C(=O)N(C)C)c2O)c(=O)c1=O)[C@]1(C)CC(F)(F)CO1 (stereo partly drawn) [087A]
Ans: 511.03

Q: Determine its reported Liver microsome T1-2 (min) Human: Cc1cccnc1[C@H](Nc1c(Nc2ccc(Cl)c(C(=O)N(C)C)c2O)c(=O)c1=O)C1(C)CC(F)(F)C1 [compound 088]
Ans: 423.69

Q: Determine its reported Liver microsome T1-2 (min) Human: CN(C)C(=O)c1nccc(Nc2c(N[C@@H](c3cccc(CF)n3)C3(C)CCCC3)c(=O)c2=O)c1O [compound 108]
Ans: 458.54

Q: Determine its reported Liver microsome T1-2 (min) Human: CN(C)C(=O)c1nccc(Nc2c(NC(C#CC3CCC3)C3(C)CC(F)(F)CO3)c(=O)c2=O)c1O (stereo not drawn) [compound 110]
Ans: 324.84

Q: Determine its reported Liver microsome T1-2 (min) Human: Cc1cccnc1C(Nc1c(Nc2ccc(F)c(C(=O)N(C)C)c2O)c(=O)c1=O)[C@@]1(C)CC(F)(F)CO1 (stereo partly drawn) [087B]
Ans: 369.68

Q: Determine its reported Liver microsome T1-2 (min) Human: CN(C)C(=O)c1nccc(Nc2c(N[C@@H](c3cccc(F)n3)C3(C)CCCC3)c(=O)c2=O)c1O [compound 002]
Ans: 281.53

Q: Determine its reported Liver microsome T1-2 (min) Human: CC#C[C@H](Nc1c(Nc2ccc(Cl)c(C(=O)N(C)C)c2O)c(=O)c1=O)C1(C)CCCC1 [compound 114]
Ans: 392.83

Q: Determine its reported Liver microsome T1-2 (min) Human: CN(C)C(=O)c1nccc(Nc2c(N[C@@H](c3nc(Cl)ccc3F)[C@@]3(C)CC(F)(F)CO3)c(=O)c2=O)c1O [068B]
Ans: 995.19

Q: Determine its reported Liver microsome T1-2 (min) Human: CN(C)C(=O)c1nccc(Nc2c(N[C@@H](c3ccccn3)C3(C)CCCC3)c(=O)c2=O)c1O [compound 004]
Ans: 672.88
